Biological target: human IgG1 antibody (#I5154; Sigma-Aldrich) (human)
Test: ELISA
endpoint label: OD
Lab note: record just the number, no unit beside it.

Solved entries (count: 5):
R1-27 (scFv, not shown: small tags and cut ends) scFv: QQQLMESGGGLVTPGTPLTLTCTVSGIDLRRYAMGWVRQAPGKGLQWIGIIASGNTDYASWAKGRFTISATSTTVDLKITSSTTEDTATYFCARYSGDNGGTLNLWGPGTLATVTTGGGGSGGGGSGGGGSELVMTQTAASVSEPVGGTVTIKCQASEHIRNYLAWYQQKPGQPPKLLIYTTSNLASGVPSRFSGSGSGTEYTLTISDLECADAATYYCQNYYDISTYGNTFGGGTEVDVKGS :: 3.07
R3-26 (scFv, not shown: small tags and cut ends) scFv: QEQLVESGGGLVKPGGTLTLTCTVSGIDLSSYAMSWVRQVPGKGLEWIGIIGSGGGTAYANWAKGRFTISKTSSTTVDLKMTSLTTEDTATYFCATDYGIYGYAYGHLWGPGTLVTVTSGGGGSGGGGSGGGGSELVMTQTASPVSAAVGGTVTIKCQASQSISTALAWYQQRPGQPPKLLIYDASTLASGVSSRFKGSGSGTEFTLTISDLECADAATYYCQTYFGSDTDNAFGEGTEVEITGS :: 3.1
R2-16 (scFv, not shown: small tags and cut ends) scFv: QSVKESGGRLVTPGTPLTLTCTVSGFSLSSYAMGWVRQAPGKGLEYIGIISSSGSTYYASWAKGRFTISKTSTTVDLKITSPTTEDTATYFCARYSGDNGGALNLWGPGTLVTVTSGGGGSGGGGSGGGGSELDLTQTAASVSEPVGGTVTISCQSSQHIRSYLAWYQQKPGQPPKLLISAASTLASGVSSRFKGSGSGTEFTLTISDLECADAATYYCQRYYDIRNYGNGFGGGTEVEITGS :: 3.12
R2-18 (scFv, not shown: small tags and cut ends) scFv: QSLEESGGRLVTPGTPLTLTCTVSGIDLSSNAMTWVRQAPGEGLEWIGTISTGGSTYFASWAKGRFTISKTSTTVDLKITSPTTEDTATYFCATRYDSYGYAYNYWFGTLWGPGTLVTVTSGGGGSGGGGSGGGGSELVMTQTAASVSEPVGGTVTIKCQASQNINNELAWYQQKPGQRPKLLIYDASKLASGVPSRFSGSGSGTEFTLTISGMQCDDAATYYCQSTYYDGNYVYAFGGGTEVDVKGS :: 3.11
R3-75 (scFv, not shown: small tags and cut ends) scFv: QSVKESGGRLVTPGTPLTLTCTVSGIDLSSNAMSWVRQAPGEGLEWIGTISTVGKTYFASWAKGRFTISKTSTTVDLRITSPTTEDTATYFCATRYDSYGYAYNYWFGTLWGPGTLVTVTSGGGGSGGGGSGGGGSELDLTQTPPSVSGAVGGTVTIKCQASENINSELAWYQQKPGQRPKLLIYDASKLASGVPSRFSGSGSGTEYTLTISGMQCDDAATYYCQSTYYDGNYVYAFGGGTEVDVTRS :: 3.05

Ask: Return OD for the following binder: R3-23 (scFv, not shown: small tags and cut ends) scFv: QSVKESEGRLVTPGTPLTLTCTVSGFSLSRYAVSWVRQAPGKGLEWIGIIGSGGSTSYATWARGRFTISKTSTTVDLKITSPTTEDTVTYFCGSYYDSHGYAYVSLWGPGTLVTVTSGGGGSGGGGSGGGGSELVLTQTPSPVSGAVGGTVTINCQASQSISTALAWYQQKPGQPPKLLIYSASTLASGVSSRFKGSGSGTGFTLTISDLECADAATYYCQSYYGSSSDNAFGGGTEVVIKRS
Reply: 3.06

Ask: State its OD: IgA R3-1 (scFv, not shown: small tags and cut ends) scFv: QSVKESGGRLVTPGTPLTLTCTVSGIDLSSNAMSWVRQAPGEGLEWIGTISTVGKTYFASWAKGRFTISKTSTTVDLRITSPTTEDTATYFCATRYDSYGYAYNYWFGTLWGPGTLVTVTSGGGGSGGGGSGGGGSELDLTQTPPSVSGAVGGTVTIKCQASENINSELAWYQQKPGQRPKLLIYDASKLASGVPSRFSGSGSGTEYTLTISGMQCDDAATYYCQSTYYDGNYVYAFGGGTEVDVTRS
Reply: 3.09

Ask: Read off the recorded OD for IgA R3-18 (scFv, not shown: small tags and cut ends) scFv: QSLEESGGRLVTPGTPLTLTCTVSGIDLSSNAMTWVRQAPGEGLEWIGTISTGGSTYFASWAKGRFTISKTSTTVDLKITSPTTEDTATYFCATRYDSYGYAYNYWFGTLWGPGTLVTVTSGGGGSGGGGSGGGGSELVMTQTAASVSEPVGGTVTIKCQASQNINNELAWYQQKPGQRPKLLIYDASKLASGVPSRFSGSGSGTEFTLTISGMQCDDAATYYCQSTYYDGNYVYAFGGGTEVDVKGS
Reply: 3.09

Ask: Give me measured OD, please, for this binder: R3-58 (scFv, not shown: small tags and cut ends) scFv: QQQLMESGGRLVTPGGSLTLTCTVSGIDLNSYAMGWVRQAPGKGLEYIGIIRNSGNTYYASWAKGRFTISKTSSTTVDLKMTSLTTEDTATYFCARYSGDNGGALNLWGPGTLVTVTSGGGGSGGGGSGGGGSELVMTQTAASVSGPVGGTVTIKCQASEFIRNYLAWYQQKPGQPPKLLIYTTSNLASGVPSRFSGSGSGTEYTLTISDLECADAATYYCQNYYDISTYGNAFGGGTEVVVIKGS
Reply: 3.14

Ask: For R1-7 (scFv, not shown: small tags and cut ends) scFv: QSLEESGGRLVTPGTPLTLTCTVSGIDLRRYAMGWVRQAPGKGLQWIGIIASGNTDYASWAKGRFTISATSTTVDLKITSPTTEDTATYFCARYSGDNGGTLNLWGPGTLVTVTSGGGGSGGGGSGGGGSELVMTQTAASVSEPVGGTVTIKCQASQSISSYLAWYQQKPGQPPKLLIYAASNLASGVSSRFKGSGSGTEFTLTISDLECADAATYYCQSYYSISSYGNTFGGGTEVEITGS , write its OD.
Reply: 3.12

Ask: Consider the binder R3-8 (scFv, not shown: small tags and cut ends) scFv: QSLEESGGRLVTPGTPLTLTCTVSGIDLSSNAMTWVRQAPGEGLEWIGTISTGGSTYFASWAKGRFTISKTSTTVDLKITSPTTEDTATYFCATRYDSYGYAYNYWFGTLWGPGTLVTVTSGGGGSGGGGSGGGGSELVMTQTAASVSEPVGGTVTINCQASQSISDELAWYQQKPGQRPKLLIYDASDLASGVPSRFSGSGSGTEFTLTISGVQCDDAATYYCQSAYYDGRYVYAFGGGTEVEVTGS and give its recorded OD.
Reply: 3.03
